Entries and their TL1A Binding Level (Early) values follow.
# measured target: T1, human TL1A extracellular domain with N-terminal HIS and FLAG tag (human, UniProt O95150 72-251)
# T1 construct: whole entry named. ~70 kDa fraction purified by gel filtration
# T1 sequence: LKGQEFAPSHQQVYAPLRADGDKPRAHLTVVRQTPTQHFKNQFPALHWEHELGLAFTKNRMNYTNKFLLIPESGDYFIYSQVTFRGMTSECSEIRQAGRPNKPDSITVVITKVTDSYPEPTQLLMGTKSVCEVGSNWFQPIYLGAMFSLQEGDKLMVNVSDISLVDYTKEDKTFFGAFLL
# assay comment: SPR run 2; purified antibody on Protein A; TL1A 10 ug/mL; timepoint 44
Express the result in RU but write the number alone.

Study these solved cases before continuing.
>>> meas_value("320-197 (antibody, human IgG1, name in Kabat numbering, V domains shown, human IgG1, lambda) VH: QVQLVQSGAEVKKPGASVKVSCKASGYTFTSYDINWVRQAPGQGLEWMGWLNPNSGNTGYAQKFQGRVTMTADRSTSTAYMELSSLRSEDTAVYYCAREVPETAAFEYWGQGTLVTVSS VL: QSVLTQPPSVSGAPGQRVTISCKSSSSDIGAGLGVHWYQQLPGTAPKLLIEGYYNRPSGVPDRFSGSKSGTSASLTITGLLPEDEGDYYCQSYDGTLSALFGGGTKLTVLG")
105
>>> meas_value("320-237 (antibody, human IgG1, name in Kabat numbering, V domains shown, human IgG1, lambda) VH: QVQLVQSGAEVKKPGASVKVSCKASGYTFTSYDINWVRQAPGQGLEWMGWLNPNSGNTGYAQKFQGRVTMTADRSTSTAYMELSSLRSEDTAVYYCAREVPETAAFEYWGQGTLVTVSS VL: QSVLTQPPSVSGAPGQRVTISCTSSSSKIGAGLGVHWYQQLPGTAPKLLIEGYYNRPSGVPDRFSGSKSGTSASLTITGLLPEDEGDYYCQSYDGTLSALFGGGTKLTVLG")
10

Let us move to another entry and its TL1A Binding Level (Early).
q: GET /values?readout=TL1A Binding Level (Early)&item= 320-199 (antibody, human IgG1, name in Kabat numbering, V domains shown, human IgG1, lambda) VH: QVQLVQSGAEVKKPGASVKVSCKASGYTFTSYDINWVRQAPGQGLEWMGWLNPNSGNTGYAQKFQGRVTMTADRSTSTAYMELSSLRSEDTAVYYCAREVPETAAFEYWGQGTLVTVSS VL: QSVLTQPPSVSGAPGQRVTISCWSSSSDIGAGLGVHWYQQLPGTAPKLLIEGYYNRPSGVPDRFSGSKSGTSASLTITGLLPEDEGDYYCQSYDGTLSALFGGGTKLTVLG
a: 97
